This collection of values is drawn from patent US8604016B2.

tgt: recombinant form of Glutaminase 1 (GAC) (Homo sapiens)
measurement.protocol: Recombinant Enzyme Assay (GAC coupled to GDH, NADH absorbance, no preincubation)
Assay type: biochemical
reported.conditions: no preincubation; read-out: GAC Delta N2 IC50 no preinc
parameter: IC50 (nM)
Hi! Could you send only the number? It should be in nM, unit omitted.

Check out these entries, answers already filled in.
COC(C(=O)Nc1nnc(CCCCc2nnc(NC(=O)C(OC)c3ccccc3)s2)s1)c1ccccc1 (stereo not shown) :: 1300
COc1cccc(C(CO)C(=O)Nc2nnc(CCCCc3nnc(NC(=O)C(CO)c4cccc(OC)c4)s3)s2)c1 (stereo not shown) :: 120
O=C(Nc1nnc(CCCCc2nnc(NC(=O)C(O)c3ccccc3)s2)s1)C(O)c1ccccc1 (stereo not shown) :: 290
O=C(Cc1cccs1)Nc1nnc(CCSCCc2nnc(NC(=O)Cc3cccs3)s2)s1 :: 240

Problem: Give recorded IC50. O=C(Nc1nnc(CCCCc2nnc(NC(=O)[C@@H](O)c3ccccc3Cl)s2)s1)[C@@H](O)c1ccccc1Cl
Result: 380
